The measurements presented in this section are drawn from paper PMC6181319.

Biological target: human serum albumin (HSA) (Homo sapiens, UniProt P02768)
Sequence (P02768 25-609): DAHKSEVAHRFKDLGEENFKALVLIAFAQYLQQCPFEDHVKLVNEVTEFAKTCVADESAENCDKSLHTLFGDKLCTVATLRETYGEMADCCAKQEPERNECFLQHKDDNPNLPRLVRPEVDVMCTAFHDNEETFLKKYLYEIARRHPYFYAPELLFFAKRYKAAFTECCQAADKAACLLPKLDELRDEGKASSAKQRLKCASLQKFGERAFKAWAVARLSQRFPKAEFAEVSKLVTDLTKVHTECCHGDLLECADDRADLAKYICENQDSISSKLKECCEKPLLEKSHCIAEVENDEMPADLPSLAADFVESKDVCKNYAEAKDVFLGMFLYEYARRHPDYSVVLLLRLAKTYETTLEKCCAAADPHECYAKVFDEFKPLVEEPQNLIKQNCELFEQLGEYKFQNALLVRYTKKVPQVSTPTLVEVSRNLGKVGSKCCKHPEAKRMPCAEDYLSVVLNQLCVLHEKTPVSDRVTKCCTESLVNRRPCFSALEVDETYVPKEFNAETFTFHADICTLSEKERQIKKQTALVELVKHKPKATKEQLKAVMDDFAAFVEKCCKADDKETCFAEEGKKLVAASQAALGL
Experiment: Isothermal titration calorimetry (ITC) of binding of catechins and analogs to HSA
Set-up: purchased Sigma-Aldrich Japan (Tokyo, Japan)
Details: KD, S2 Table; NaCl 0 M
Protocol: The binding of the catechins and its analogs to HSA was examined in a VP-ITC instrument (Microcal Northampton, MA). […] The data were analyzed with the Origin software (ver. 7) by means of a single-binding-site model. The thermodynamic parameters were obtained from three replicate titrations, where the dilution heats of the ligands were subtracted.
Measured Property: pKd
Reminder that pKd means the negative base-10 logarithm of the concentration expressed in mol/L.

Query block: // pKd lookup, key: Oc1cc(O)c2c(c1)O[C@H](c1cc(O)c(O)c(O)c1)[C@H](O)C2 [EGC, (−)-epigallocatechin]
Result block: 4.71

---

Target: human serum albumin (HSA) (Homo sapiens, UniProt P02768)
Test: Isothermal titration calorimetry (ITC) of binding of catechins and analogs to HSA
Set-up: purchased Sigma-Aldrich Japan (Tokyo, Japan)
Settings: Table 1; ITC, 298 K, 50 mM sodium phosphate pH 6.8, HSA 50 μM, single-binding-site model
Marks after values point to notes of the source that are not given here.
# N (number of binding sites) values compiled below

{"Compound": "Oc1cc(O)c2c(c1)O[C@@H](c1ccc(O)c(O)c1)[C@H](O)C2 [C, (+)-catechin]", "Measured Property": "N (number of binding sites)", "Experimental Result": "1.0 ± 0.2"}
{"Compound": "O=C(O[C@@H]1Cc2c(O)cc(O)cc2O[C@H]1c1cc(O)c(O)c(O)c1)c1cc(O)c(O)c(O)c1 [GCg, (−)-gallocatechin gallate]", "Measured Property": "N (number of binding sites)", "Experimental Result": "1.2 ± 0.2"}
{"Compound": "Oc1cc(O)c2c(c1)O[C@@H](c1cc(O)c(O)c(O)c1)[C@H](O)C2 [GC, (−)-gallocatechin]", "Measured Property": "N (number of binding sites)", "Experimental Result": "1.0 ^b"}

From here, focus on the item given below.
Query block: // N (number of binding sites) lookup, key: Oc1cc(O)c2c(c1)O[C@H](c1ccc(O)c(O)c1)[C@H](O)C2 [EC, (−)-epicatechin]
Result block: 1.0 ^b

---

Target: human serum albumin (HSA) (Homo sapiens, UniProt P02768)
Assay: Differential scanning calorimetry (DSC), thermal stability of HSA–ligand complexes
Conditions: human, human serum albumin (HSA) 50 µM in buffer, pH 6.8
# ΔTm at 500 µM values compiled below
Use °C as the unit, but write only the number.

Here is how some molecules turned out for ΔTm at 500 µM.
{"Molecule": "O=C(O[C@@H]1Cc2c(O)cc(O)cc2O[C@@H]1c1ccc(O)c(O)c1)c1cc(O)c(O)c(O)c1 [ECg, (−)-epicatechin gallate]", "ΔTm at 500 µM [°C]": 3.5}
{"Molecule": "Oc1cc(O)c2c(c1)O[C@@H](c1ccc(O)c(O)c1)[C@H](O)C2 [C, (+)-catechin]", "ΔTm at 500 µM [°C]": -0.1}

Query block: // ΔTm at 500 µM lookup, key: Oc1cc(O)c2c(c1)O[C@H](c1ccc(O)c(O)c1)[C@H](O)C2 [EC, (−)-epicatechin]
Result block: 0

---

# Kd values compiled below
Target: human serum albumin (HSA) (Homo sapiens, UniProt P02768)
Assay: Isothermal titration calorimetry (ITC) of binding of catechins and analogs to HSA
Design: purchased Sigma-Aldrich Japan (Tokyo, Japan)
Settings: KD, S1 Table; ITC binding affinity listed beside Tm
Use µM as the unit, but write only the number.

{"Molecule": "Oc1cc(O)c2c(c1)O[C@@H](c1cc(O)c(O)c(O)c1)[C@H](O)C2 [GC, (−)-gallocatechin]", "System Tested": "human serum albumin (HSA) (Homo sapiens, UniProt P02768)", "Measure Unit": "µM", "Kd": 52}

From here, focus on the item given below.
Query block: Under human serum albumin (HSA) (Homo sapiens, UniProt P02768): Kd value of Oc1cc(O)c2c(c1)O[C@H](c1cc(O)c(O)c(O)c1)[C@H](O)C2 [EGC, (−)-epigallocatechin] ?
Result block: 20
